target: Parathyroid hormone/parathyroid hormone-related peptide receptor (Homo sapiens); assay: qHTS for PTHR1 Agonists: Optimization Screen against the NCGC LOPAC library (AID 1347079); settings: HEK293 GP2 PTHR1 GloSensor cAMP luminescence, 1 h; series mostly up to 57.1 µM;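 note: GloSensor cAMP luminescence in HEK-293 GP2 cells expressing human PTHR1 with IBMX; 0% is about no effect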
Activity calls are given as the source filed them. Calls come from the whole dose curve; as a rule, active = well fitted activation curve with a large enough effect; inconclusive = small, poorly fitted or top-dose-only effect; inactive = no such curve, though single readings can be large or run the other way.
Metric: outcome

Consider the reported outcome for these compounds:
• Clc1ccc2c(c1)C(N1CCNCC1)=Nc1ccccc1O2 = inactive
• Clc1ccc2nsnc2c1NC1=NCCN1 = inactive
• NS(=O)(=O)c1cc2c(cc1Cl)NCNS2(=O)=O = inactive
• CCOC(=O)Nc1ccc(NCc2ccc(F)cc2)nc1N = inactive
• COc1ccc2[nH]cc(CCNC(C)=O)c2c1 = inactive
• OCCN(CCO)c1nc(N2CCCCC2)c2nc(N(CCO)CCO)nc(N3CCCCC3)c2n1 = inactive

Recorded outcome of CN1CCN2c3ccccc3Cc3ccccc3C2C1 (centres undefined) , please.
inactive

Now try "CN1C(C(=O)Nc2ccccn2)=C(O)c2ccccc2S1(=O)=O" .
inactive

Query "NC(=O)OCC(COC(N)=O)c1ccccc1" next
inactive

====

Assay: Quantitative High-Throughput drug screen in 47 multiple myeloma cell lines against the NCATS MIPE library collection: Karpas620_DSMZ cell viability assay (AID 1918959); note: nearly all actives have a fitted effect of over 30% in size
Conditions: Karpas620 myeloma viability, CellTiter-Glo ATP luminescence, 48 h; series mostly up to 45.8 µM
From the text: PI: Beverly A. Mock Ph.D. Laboratory of Cancer Biology and Genetics, Center for Cancer Research, National Cancer Institute, National Institute of Health, Bethesda, Maryland […] 5; Detector; 425V; Luminescence; Viewlux PerkinElmer. […] 1. […] Briefly, the corresponding myeloma cell lines were screened in 1,536-well plates with 500 cells, 5-uL per well for inhibition of cell viability (assessed by measuring ATP levels with CellTiterGlo). […]
Inconclusive results are not listed. The source made the active and inactive calls. Calls come from the whole dose curve; as a rule, active = well fitted cell-killing curve with a large enough effect; inconclusive = small, poorly fitted or top-dose-only effect, or effect the other way; inactive = no such curve, though single readings can be large or run the other way.
// classify into Y for active, N for inactive

• Nc1ccn([C@H]2CC[C@@H](CO)O2)c(=O)n1 = N
• Nc1c2c(nc3ccccc13)CCCC2 = N
• COc1ccc2[nH]cc(CCNC(C)=O)c2c1 = N
• CS(=O)(=O)CCNCc1ccc(-c2ccc3ncnc(Nc4ccc(OCc5cccc(F)c5)c(Cl)c4)c3c2)o1 = Y
• Cc1ccc(C(=O)Nc2ccc(S(=O)(=O)O)c3cc(S(=O)(=O)O)cc(S(=O)(=O)O)c23)cc1NC(=O)c1cccc(NC(=O)Nc2cccc(C(=O)Nc3cc(C(=O)Nc4ccc(S(=O)(=O)O)c5cc(S(=O)(=O)O)cc(S(=O)(=O)O)c45)ccc3C)c2)c1 = N
• CC(=O)OCC(CCn1cnc2cnc(N)nc21)COC(C)=O = N
• CC(C)(C)C(=O)Oc1ccc(S(=O)(=O)Nc2ccccc2C(=O)NCC(=O)O)cc1 = N
• Cc1ccccc1N1C(=O)c2cc(S(N)(=O)=O)c(Cl)cc2NC1C (stereo not drawn) = N

Tell me the recorded outcome of this test for "NS(=O)(=O)c1cc2c(cc1Cl)NCNS2(=O)=O" .
N

Also need "CCOC(=O)C(C)(C)Oc1ccc(Cl)cc1" , thanks.
N

Would you mind doing "CN(C)CCOC(c1ccccc1)c1ccccc1" as well?
N

Queued: "CC[C@@]1(O)C(=O)OCc2c1cc1n(c2=O)Cc2cc3c(CN(C)C)c(O)ccc3nc2-1"
Y

"CN(C)C(=O)C(CCN1CCC(O)(c2ccc(Cl)cc2)CC1)(c1ccccc1)c1ccccc1" , same question.
N

====

System: NIH3T3
Experiment: Cytotoxic Profiling of Annotated Libraries Using Quantitative High-Throughput Screening (AID 1296008); note: nearly all actives have a fitted effect of over 60% in size
Conditions: Five cell lines viability, CellTiter-Glo ATP luminescence, 48-72 h
Method: Cell-based phenotypic screening is a commonly used approach to discover biological pathways, novel drug targets, chemical probes and high-quality hit-to-lead molecules. […] A pintool (Kalypsys) was used to transfer 23 nL of compound solution to the 1536-well assay plates. […] Plates were left at room temperature for 10 min before imaging the ATP-coupled luminescence using a ViewLux microplate imager (PerkinElmer, Waltham, MA).
Results filed as inconclusive are left out. Active and inactive are the calls of the source. The call rests on the fitted dose curve; in most records, active means well fitted inhibition curve with a large enough effect; inconclusive means small, poorly fitted or top-dose-only effect; inactive means flat fitted curve, though single readings scatter.
A correct response names exactly one class from active, inactive

Examples from the recorded data:
* OCCN1CCN(CCCN2c3ccccc3Sc3ccc(C(F)(F)F)cc32)CC1 | active
* CC(C)(Oc1ccc(C2CC2(Cl)Cl)cc1)C(=O)O (stereo not given) | inactive
* Nc1nnc(-c2cccc(Cl)c2Cl)c(N)n1 | inactive
* CCC1(C)CC(=O)NC1=O (stereo not given) | inactive

Could you now consider this next compound?
// param item: "NC(=O)OCC(COC(N)=O)c1ccccc1" ; yields the recorded call
inactive

====

assay: High-throughput drug toxicity screening in the BPDCN cell line Cal-1 (AID 1224825); conditions: Cal-1 BPDCN cell viability, qHTS; at 45.8 µM (top of the series) unless noted;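 note: cells exposed to compounds for 48 h; 100% = DMSO and 0% = bortezomib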
Metric: viability (% of control) (%)
The reply should be a number in %, with the unit left off.

• CCc1cccc2c3c([nH]c12)C(CC)(CC(=O)O)OCC3 (centres undefined) = 128
• CC(CCc1ccc(O)cc1)NCCc1ccc(O)c(O)c1 (centres undefined) = 9.22
• CC[N+](CC)(CC)CCOc1cccc(OCC[N+](CC)(CC)CC)c1OCC[N+](CC)(CC)CC = 111

// below: viability (% of control) requested for another molecule
Would you mind telling me what viability (% of control) value was observed for "Cc1cnc(C(=O)NCCc2ccc(S(=O)(=O)NC(=O)NC3CCCCC3)cc2)cn1" ?
58.3

====

assay: qHTS Screen of the MIPE 4.0 Collection Against Ewings Sarcoma (RDES) (AID 1259252); settings: RD-ES Ewing sarcoma viability, CellTiter-Glo, 48 h; series mostly up to 45.8 µM;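 note: 100% = DMSO-treated cells and 0% = medium-only wells without cells; nearly all actives have a fitted effect of over 35% in size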
Results filed as inconclusive are left out. Active and inactive are the calls of the source. The call rests on the fitted dose curve; in most records, active means well fitted inhibition curve with a large enough effect; inconclusive means small, poorly fitted or top-dose-only effect; inactive means no such curve, though single readings can be large or run the other way.
Respond using exactly one of the listed classes: active, inactive

Hey, what did the test say about "C[C@](N)(Cc1ccc(O)c(O)c1)C(=O)O" ?
inactive

====

test: Quantitative High-Throughput drug screen in 47 multiple myeloma cell lines against the NCATS MIPE library collection: MOLP8_DSMZ cell viability assay (AID 1918977); settings: MOLP8 myeloma viability, CellTiter-Glo ATP luminescence, 48 h; series mostly up to 45.8 µM; note: nearly all actives have a fitted effect of over 45% in size
Records with an inconclusive call do not appear. Activity calls are given as the source filed them. Calls follow the shape of the dose curve; as a rule, active = well fitted cell-killing curve with a large enough effect; inconclusive = small, poorly fitted or top-dose-only effect, or effect the other way; inactive = no such curve, though single readings can be large or run the other way.
Returns: one label drawn from active, inactive

Lab log entry: Clc1ccc(C(c2ccccc2Cl)C(Cl)Cl)cc1 (stereo not drawn) — outcome as called in the assay?
active

And for "CN1CCN(C2=Nc3cc(Cl)ccc3Nc3ccccc32)CC1" ?
inactive

Now this one: "CN1C(C(=O)Nc2ccccn2)=C(O)c2ccccc2S1(=O)=O"
inactive

====

tested on: TAB109; assay: qHTS profiling for inhibitors of Plasmodium falciparum proliferation (AID 504749); note: nearly all actives have a fitted effect of over 60% in size; conditions: P. falciparum in erythrocytes, SYBR Green DNA, 72 h; series mostly up to 28.7 µM
Records with an inconclusive call do not appear. The source made the active and inactive calls. Calls follow the shape of the dose curve; as a rule, active = well fitted inhibition curve with a large enough effect; inconclusive = small, poorly fitted or top-dose-only effect; inactive = flat fitted curve, though single readings scatter.
Log the outcome using a class from t = active, f = inactive

* Clc1ccc(C(c2ccccc2Cl)C(Cl)Cl)cc1 (stereo unspecified) | f
* CCOC(=O)Nc1ccc(NCc2ccc(F)cc2)nc1N | t
* Cn1cnc2c1c(=O)[nH]c(=O)n2C | f
* NC12CC3CC(CC(C3)C1)C2 | f
* CN(C)c1nc(N(C)C)nc(N(C)C)n1 | f

Now look at this entry.
Tell me the assay call for "O=C(c1ccc(OCCN2CCCCC2)cc1)c1c(-c2ccc(O)cc2)sc2cc(O)ccc12" please.
t

====

tested on: ECU; assay: qHTS profiling for inhibitors of Plasmodium falciparum proliferation (AID 504749); note: nearly all actives have a fitted effect of over 60% in size; settings: P. falciparum in erythrocytes, SYBR Green DNA, 72 h; series mostly up to 28.7 µM
Inconclusive results are not listed. Activity calls are given as the source filed them. Calls follow the shape of the dose curve; as a rule, active = well fitted inhibition curve with a large enough effect; inconclusive = small, poorly fitted or top-dose-only effect; inactive = flat fitted curve, though single readings scatter.
Response enum: active, inactive

Illustrative cases are given below, each with its answer.
- Cc1cc(C(C)(C)C)c(O)c(C)c1CC1=NCCN1: inactive
- COc1ccc2[nH]cc(CCNC(C)=O)c2c1: inactive
- O=c1c(-c2ccc(O)cc2)coc2cc(O)cc(O)c12: inactive
- CS(=O)(=O)CCNCc1ccc(-c2ccc3ncnc(Nc4ccc(OCc5cccc(F)c5)c(Cl)c4)c3c2)o1: inactive
- CC(CCc1ccc(O)cc1)NCCc1ccc(O)c(O)c1 (centres undefined): inactive
- OCCN1CCN(CCCN2c3ccccc3Sc3ccc(C(F)(F)F)cc32)CC1: active

// param item: "Clc1ccc2nsnc2c1NC1=NCCN1" ; yields the recorded call
inactive

Same thing, different compound: "CC#C[C@]1(O)CC[C@H]2[C@@H]3CCC4=CC(=O)CCC4=C3[C@@H](c3ccc(N(C)C)cc3)C[C@@]21C"
active

Note, next up: "CC[N+](CC)(CC)CCOc1cccc(OCC[N+](CC)(CC)CC)c1OCC[N+](CC)(CC)CC"
inactive

Repeat for the following compound: "NCCCCCC(=O)O"
inactive

Then this compound: "NC12CC3CC(CC(C3)C1)C2"
inactive
